Reported melting point values for a set of molecules

{"molecule": "Cc1nsc(-c2ccc(Cl)cc2)n1", "melting point": "81 to 83 °C"}
{"molecule": "Nc1c(C=O)c(=O)oc2ccccc12", "melting point": "267 to 268 °C"}
{"molecule": "Cc1cc(Br)c(O)c(Br)c1", "melting point": "50 °C"}
{"molecule": "O=C(O)CSc1ncccn1", "melting point": "200 to 203 °C"}
{"molecule": "O=C(/C=C/OC(=O)c1ccccc1)CCc1ccccc1", "melting point": "99 to 100 °C"}

*Q* // returns reported melting point for input S=C1NC2=C(CCCC2=Cc2ccccc2)C(c2ccccc2)N1 (stereo not drawn)
*A* 190 to 192 °C

*Q* Requested read-out: melting point. Entry: CSc1nc(=O)n(C)c2c1CCC2
*A* 145 to 146 °C

*Q* What value of melting point has been recorded for this entry: O=C(Cl)c1cc2cc([N+](=O)[O-])ccc2s1
*A* 157 to 158 °C

*Q* Quick one: melting point of Nc1cc(C(=O)O)ccc1O ?
*A* 198 to 205 °C

*Q* Data request, read-out melting point, for FC(F)(F)c1cc(C(F)(F)F)[nH]n1
*A* 82 to 84 °C

*Q* Give its melting point value. Item: O=C(O)c1cc(Cl)ccc1N=NC1SC(=S)NC1=O (stereo not drawn)
*A* 210 to 212 °C

*Q* Which melting point value belongs to N#C/C(=C\c1cccs1)c1nc(-c2cccc3ccccc23)cs1 ?
*A* 205 to 207 °C

*Q* What value of melting point has been reported for the following molecule? CC1=C(C(N)=O)C(c2ccccc2)NC(=O)N1 (stereo not drawn)
*A* 260 to 262 °C

###

Entries annotated with measured melting point

Answered examples (8):
{"molecule": "OCC1OC(O)C(O)C1O (centres undefined)", "melting point": "88 to 92 °C"}
{"molecule": "C=CCNC(=S)Nc1sc2c(c1C(=O)OCC)CCN(Cc1ccccc1)C2", "melting point": "138 to 139 °C"}
{"molecule": "CCOC(=O)c1c(C)c(C(C)=O)c(C)n1C", "melting point": "61 to 62 °C"}
{"molecule": "NCCCCC(=O)O", "melting point": "158 to 161 °C"}
{"molecule": "NC(Cc1ccccc1)=NO", "melting point": "66 to 67 °C"}
{"molecule": "CCOC(=O)Cc1c(C(=O)OCC)[nH]c(C)c1C(=O)OCc1ccccc1", "melting point": "110 to 112 °C"}
{"molecule": "Cn1nc(-c2cccs2)cc1N", "melting point": "139 to 140 °C"}
{"molecule": "O=C(CBr)c1ccc(N2CCOCC2)cc1", "melting point": "112 to 115 °C"}

API: the following record is the query input.
*Q* Need melting point of C=Cc1c2ccccc2cc2ccccc12 , thanks.
*A* 64 to 66 °C

###

assay-metric: melting point (°C)

{"molecule": "CC(C)(C)NCC(O)c1cc(O)cc(O)c1 (centres undefined)", "unit": "°C", "melting point": 119}
{"molecule": "CCOC(=O)c1c(SC)nn(C(=O)c2cccc([N+](=O)[O-])c2)c1N", "unit": "°C", "melting point": 153}

1. COc1ccc(-c2cc3nc(C)cc(C(F)(F)F)n3n2)cc1
2. CCC1=CN(S(=O)(=O)c2ccc(C)cc2)C[C@@H]1CCc1cccc(C(=O)OC)c1
*Q* Parameter metric = melting point. Return the lower-valued option from 1 and 2 . Please reply using the label of the selected record.
*A* 2

###

assay-metric: melting point (°C)

// known answers, use as guide
{"compound": "CC12CCC(=O)C=C1CCC1C2CCC2(C)C1CCC2(O)C(=O)CO (stereo not given)", "recorded-number": 215}
{"compound": "Clc1nccc2ccccc12", "recorded-number": 34}

I. N#CCc1cccc(C(F)(F)F)c1Cl
II. COC(=O)CCC(C)C1CCC2C3C(=O)CC4CCCCC4(C)C3CC(=O)C12C (stereo not given)
*Q* Between the entries labeled I and II , whose measured melting point is lower? // return label of chosen record
*A* I

###

Measured melting point, listed per entry.

Here's what some known entries look like.
{"compound": "NNC(=S)Nc1ccc(OCc2ccccc2)cc1", "assay-metric": "melting point", "result": "167 to 170 °C"}
{"compound": "CC(C)C(C)(C)C", "assay-metric": "melting point", "result": "-25 °C"}
{"compound": "Cc1nc(-c2ccc(CO)cc2)cs1", "assay-metric": "melting point", "result": "71 to 74 °C"}
{"compound": "CCNc1nc(Cl)nc(NC(C)(C)C)n1", "assay-metric": "melting point", "result": "178 °C"}
{"compound": "NS(=O)(=O)c1cc(Cl)sc1Cl", "assay-metric": "melting point", "result": "131 to 133 °C"}

*Q* melting point lookup needed for NNC(=S)Nc1cccc(F)c1 , thanks.
*A* 164 to 166 °C

*Q* What does the data say about its melting point? Entry: N#Cc1ccc(O)c(O)c1
*A* 154 to 156 °C

*Q* Entry under review: CC(CN(CC(=O)O)CC(=O)O)N(CC(=O)O)CC(=O)O (centres undefined) . Reported melting point?
*A* 241 to 243 °C

*Q* Request the reported melting point associated with CC(C)(C)OC(=O)N[C@@H](Cc1c[nH]c2ccccc12)C(=O)O
*A* 134 to 139 °C

###

assay-metric: melting point

{"structure-as-smiles": "N#Cc1c(C(F)(F)F)cc(-c2cccnc2)[nH]c1=O", "melting point": "280 to 281 °C"}
{"structure-as-smiles": "CNC(C)=CC(=O)OC", "melting point": "62 to 68 °C"}
{"structure-as-smiles": "COc1cc(OC)c(OC)cc1/C=C/C(=O)O", "melting point": "164 to 167 °C"}
{"structure-as-smiles": "ClCc1cc(-c2ccccc2)on1", "melting point": "48 to 49 °C"}
{"structure-as-smiles": "Cc1n[nH]c(SCC#N)n1", "melting point": "158 to 160 °C"}

*Q* Need melting point of Clc1ncnc2c1cnn2-c1ccccc1 , thanks.
*A* 126 to 128 °C

*Q* Record request: melting point value, item NC(=S)CCn1cccc(C(F)(F)F)c1=O
*A* 154 to 155 °C

*Q* Need melting point of O=S(=O)(Cl)c1ccc2ncsc2c1 , thanks.
*A* 118 to 119 °C

*Q* Please give the measured melting point for this molecule: O=C(O)c1ccc(-n2cncn2)cc1
*A* 318 to 320 °C

*Q* May I ask what melting point has been recorded for Fc1c(F)c(Br)c(F)c(F)c1Br ?
*A* 78 to 81 °C

###

assay-metric: melting point

*Q* Which measured melting point value corresponds to Cc1csc(C(=O)Cl)c1Cl ?
*A* 57 to 58 °C

*Q* Consider the compound COc1ccc(C2Sc3ccccc3NC(=O)C2O)cc1 (stereo not drawn) and give its measured melting point.
*A* 203 to 207 °C

*Q* Fill in the blank: the reported melting point of COC(=O)CCC(C)C1CCC2C3C(OC(C)=O)CC4CC(OC(C)=O)CCC4(C)C3CCC12C (stereo not drawn) is ____.
*A* 185 to 186 °C

###

assay-metric: melting point

{"molecule": "NCc1csc2ccc(Br)cc12", "result": "37 to 38 °C"}
{"molecule": "O=C1Nc2c(C(=O)O)cccc2C1=O", "result": "268 to 275 °C"}
{"molecule": "O=C(O)c1cccc(-c2ccco2)c1", "result": "157 to 158 °C"}
{"molecule": "Cn1cc(Br)c(-c2cccc(N)c2)n1", "result": "95 to 97 °C"}
{"molecule": "O=C1/C(=N\\Nc2cccc(F)c2)C(C(F)(F)F)=NN1c1ccccc1", "result": "105 to 107 °C"}

*Q* Would you mind telling me what melting point value was observed for COc1cccc(OC)c1C(=O)O ?
*A* 187 to 190 °C

*Q* Fill in the blank: the reported melting point of CC(=O)OC1CCC2(C)C(=CC(=O)C3C2CCC2(C)C(OCc4ccccc4)CCC32)C1 (configuration not stated) is ____.
*A* 203 °C

###

# melting point annotations
Please give a number only; it is taken to be in °C.

{"structure-as-smiles": "CCCCOC(=O)c1ccccc1C(=O)OCc1ccccc1", "melting point, °C": 230}

*Q* Consider the compound Clc1cc2c(cc1Cl)Oc1c(Cl)c(Cl)cc(Cl)c1O2 and give its measured melting point.
*A* 206

###

Readings of melting point for the listed compounds

Reference set (3 entries):
{"compound": "O=C(O)CN1C(=O)CSC1=S", "melting point": "147 °C"}
{"compound": "BrCc1ccc2nonc2c1", "melting point": "77 to 80 °C"}
{"compound": "CC(Nc1ccc(Br)cn1)=C(C#N)C(=O)c1ccccc1", "melting point": "179 to 181 °C"}

*Q* So what does the record say about melting point for Brc1ccc(Cn2ccnc2)cc1 ?
*A* 75 to 80 °C

*Q* Suppose we examine the compound Cc1ccc(C(N)=S)cc1 ; what melting point value has been reported?
*A* 163 to 168 °C

*Q* Recorded melting point for CC(=O)NC1C(OCc2ccccc2)OC2COC(c3ccccc3)OC2C1OC(C)C(=O)O (stereo unspecified) , please?
*A* 220 to 222 °C

*Q* Tell me the measured melting point of Cc1ccc(C(=O)c2ccccc2N)cc1 , please.
*A* 91 to 94 °C

*Q* Return reported melting point; argument: CSc1nc(O)ns1
*A* 158 to 160 °C

*Q* Fill in the blank: the reported melting point of NNC(=O)COc1ccc(F)cc1 is ____.
*A* 125 °C

*Q* melting point for Nc1c(Cl)c(F)nc(OCC(=O)O)c1Cl ?
*A* 232 °C

*Q* Query: melting point; subject: O=c1c2ccccc2oc2ncccc12
*A* 180 to 182 °C
